# System: HS 578T breast
# assay.remarks: NCI tumour cell line growth inhibition, 48 h
observation.type: TGI

>  <compound>
CN(C)c1ccc(/C=C2\N=C(c3ccc([N+](=O)[O-])cc3)OC2=O)cc1

>  <result>
> 100 µM

$$$$
>  <compound>
O=P(NC12CC3CC(CC(C3)C1)C2)(N1CC1)N1CC1

>  <result>
> 100 µM

$$$$
>  <compound>
C/C(=C\C1=C(Cl)C(=O)c2ccccc2C1=O)C(=O)O

>  <result>
69.3 µM

$$$$
>  <compound>
CN1C(=O)N/C(=C\c2ccc(S(=O)(=O)N/N=C\C(O)C(O)C(O)CO)cc2)C1=O (stereo not given)

>  <result>
> 100 µM

$$$$
>  <compound>
O=C(NNc1ccnc2cc(Cl)ccc12)/C(=C\c1ccccc1Cl)NC(=O)c1ccccc1

>  <result>
> 100 µM

$$$$

State the recorded TGI for this entry: `O=C(Nc1cccc(Oc2nnc(Cl)c3ccccc23)c1)Nc1ccc(Cl)c(C(F)(F)F)c1`
8.18 µM

Same for `O=C(CCCN1CCC2(CC1)NC(=O)c1ccccc1O2)c1ccc(F)cc1`
> 100 µM

Same for `O=C1C(c2c(O)[nH]c3ccc(S(=O)(=O)O)cc23)=Nc2ccc(Br)cc21`
> 100 µM

Same for `O=C1/C(=C/c2ccc(Cl)cc2)N=C(c2ccccc2)N1c1nc2ccccc2s1`
75.7 µM

Same for `C/C(=N\Oc1cc(Cl)ncn1)c1ccccn1`
> 100 µM

Where do the numbers come from? From PubChem BioAssay (NCI).
